Target: Neu5Ac(a2-3)Gal(b1-4)[Fuc(a1-3)]GlcNAc(b1-3)Gal(b1-4)GlcNAc
Experiment: glycan array binding signal (z-score within array); higher = stronger binding
Details: glycan notation: IUPAC condensed, linker removed
The full list was thinned out, with the strongest signals kept by preference.
Listing: glycan array binding signal (z-score) of selected binders
Simply state the number, no unit and no words.

Use the examples below as a reference point.
INSERT INTO results (binder, observed_value) VALUES
  ('DrGal9 (Danio rerio) (protein) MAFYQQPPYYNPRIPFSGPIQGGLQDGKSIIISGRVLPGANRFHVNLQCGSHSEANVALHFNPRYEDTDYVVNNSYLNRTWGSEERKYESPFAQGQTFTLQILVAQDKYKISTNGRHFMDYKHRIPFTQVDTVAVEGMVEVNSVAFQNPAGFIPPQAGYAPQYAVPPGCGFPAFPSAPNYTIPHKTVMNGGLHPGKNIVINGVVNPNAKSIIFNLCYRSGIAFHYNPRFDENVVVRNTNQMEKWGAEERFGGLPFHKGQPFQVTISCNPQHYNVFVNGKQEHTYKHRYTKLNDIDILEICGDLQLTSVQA', -0.356),
  ('CCL2 (Coprinopsis cinerea), B3GA02 (protein) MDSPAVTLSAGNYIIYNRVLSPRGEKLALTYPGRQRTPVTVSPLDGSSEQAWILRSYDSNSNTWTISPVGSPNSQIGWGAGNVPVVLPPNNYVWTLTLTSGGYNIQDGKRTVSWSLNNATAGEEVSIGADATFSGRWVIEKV', 4.93),
  ('Mermaid1 (Stilbonema majum) (protein) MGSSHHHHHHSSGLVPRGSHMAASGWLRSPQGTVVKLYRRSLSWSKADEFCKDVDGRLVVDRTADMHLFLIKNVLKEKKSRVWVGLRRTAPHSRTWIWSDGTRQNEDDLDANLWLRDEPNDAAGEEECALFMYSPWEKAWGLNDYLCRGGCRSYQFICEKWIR', -0.359);

**Query** Let me know recorded glycan array binding signal (z-score) for Gal 3C (Homo sapiens), P17931 (protein) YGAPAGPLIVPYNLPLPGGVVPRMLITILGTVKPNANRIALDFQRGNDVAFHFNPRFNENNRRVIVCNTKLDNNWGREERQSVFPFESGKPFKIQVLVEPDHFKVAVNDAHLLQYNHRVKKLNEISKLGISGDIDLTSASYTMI , thanks.
**Result** -0.191
